Taken from patent US20080241258A1.

# run-description: Stability (aggregation) of Au compounds in serum containing cell culture media, scored from microscopic pictures
# Format: physicochemical
# Set-up: key: Material aggregation was scored positive (+); negative (−)
# condition-info: DMEM low glucose (L) including 10% fetal calf serum; sign after slash
measurement-kind: Aggregation at 12 hours

>>> result("O=S(=O)([O-])c1cccc(P(c2cccc(S(=O)(=O)[O-])c2)c2cccc(S(=O)(=O)[O-])c2)c1.[Na+].[Na+].[Na+] [TPPTS, triphenylphosphine trisulfonate]")
"−/−"
>>> result("[Cl][Au-]([Cl])([Cl])[Cl].[Na+]")
"−/−"
>>> result("O=S(=O)([O-])c1cccc(P(c2ccccc2)c2ccccc2)c1.[Na+] [TPPMS, triphenylphosphine monosulfonate]")
"−/−"
>>> result("[Au+3].[Cl-].[Cl-].[Cl-].[Cl-].[H+]")
"−/−"
